protocol.text: Pharmacokinetic study, oral gavage to CD-1 mice, blood analyzed by LC-MS/MS
Type: in vivo
stated.conditions: 10 mg/kg, 1d-single dose, male CD-1 mice, fed, blood analysis, 0.5%CMC+0.5%Tween80
reported.endpoint: DNAUC (kg·ng·h/mL/mg)
Reply numerically in kg·ng·h/mL/mg, unit not repeated.

Prompt line: Which DNAUC value is on record for CON=c1nc[nH]c2c1ccn2[C@@H]1O[C@H]([C@H](O)c2ccc(Cl)c(Cl)c2)[C@@H](O)[C@H]1O.Cl ?
Response line: 1180

---

Below, each entry is listed alongside its reported Rep 1 Live Cells [Fold Change].
Tested on: HG3 cells
protocol.text: Cell growth curves over 12 days, HG3
Type: cell-based
stated.conditions: HG3, 10 nM, day 3
Reply numerically in Fold Change, unit not repeated.

The cases that follow already have their Rep 1 Live Cells [Fold Change] on record.
compound: Nc1ncnc2c1ccn2C1OC(C(O)c2ccc(Cl)c(F)c2)C(O)C1O (centres unmarked) [PF-06855800]
value.observed: 3.27
--
compound: Nc1nc2cc(CC[C@H]3C[C@@H](n4ccc5c(N)ncnc54)[C@H](O)[C@@H]3O)ccc2cc1Br [JNJ-64619178]
value.observed: 4.733
--
compound: Nc1ncnc2c1ccn2[C@@H]1O[C@H]([C@H](O)c2ccccc2)[C@@H](O)[C@H]1O [LLY-283]
value.observed: 6.167
--
compound: CON=c1nc[nH]c2c1ccn2[C@@H]1O[C@H]([C@H](O)c2ccc(Cl)c(Cl)c2)[C@@H](O)[C@H]1O.Cl [PRT382]
value.observed: 6.983

The record that follows has no Rep 1 Live Cells [Fold Change] shown yet.
Prompt line: Which Rep 1 Live Cells [Fold Change] value is on record for O=C(NC[C@H](O)CN1CCc2ccccc2C1)c1cc(NC2COC2)ncn1 [EPZ015666] ?
Response line: 6.05

This collection of values is drawn from paper PMC9823097.
